# Assay info: Solubility of Compound 1 in 95% ethanol solution containing 2-hydroxypropyl-β-cyclodextrin (HPLC)
# Format: physicochemical
# Recorded conditions: organic solvent or mixture, thermodynamic from solid, 1.0 w/v % 2-hydroxypropyl-β-cyclodextrin, stirred 72 hours
Measurement kind: solubility at 72 h (mg/mL)
Give bare numbers, in mg/mL.

In: Look up solubility at 72 h: CC(C)(C)c1ccc(CNC(=S)NCc2ccc(NS(C)(=O)=O)c(F)c2)cc1 [Compound 1]
Out: 21.2

---

# Assay info: Solubility of Compound 1 in aqueous 2-hydroxypropyl-β-cyclodextrin solutions (HPLC)
# Assay type: physicochemical
# Recorded conditions: aqueous 2-hydroxypropyl-β-cyclodextrin solution, aqueous with cosolvent or surfactant or cyclodextrin, thermodynamic from solid, 3.5 w/v % 2-hydroxypropyl-β-cyclodextrin, stirred 72 hours
Measurement kind: solubility at 72 h (µg/mL)
Answers are plain numbers, in µg/mL.

In: Find the recorded solubility at 72 h belonging to CC(C)(C)c1ccc(CNC(=S)NCc2ccc(NS(C)(=O)=O)c(F)c2)cc1 and report it.
Out: 1040

---

# Assay info: Solubility of Compound 1 in 95% ethanol solution containing 2-hydroxypropyl-β-cyclodextrin (HPLC)
# Format: physicochemical
# Recorded conditions: organic solvent or mixture, thermodynamic from solid, 10.0 w/v % 2-hydroxypropyl-β-cyclodextrin, stirred 72 hours
Measurement kind: solubility at 72 h (mg/mL)
Answers are plain numbers, in mg/mL.

In: Look up solubility at 72 h for this compound: CC(C)(C)c1ccc(CNC(=S)NCc2ccc(NS(C)(=O)=O)c(F)c2)cc1
Out: 34.1

---

# Assay info: Solubility of Compound 1 in 2-hydroxypropyl-β-cyclodextrin solution in glycine buffer (pH 10.5) (HPLC)
# Type: physicochemical
# Recorded conditions: pH 10.5, aqueous with cosolvent or surfactant or cyclodextrin, thermodynamic from solid, 7.0 w/v % 2-hydroxypropyl-β-cyclodextrin, stirred 72 hours
Measurement kind: solubility at 72 h (µg/mL)
One number for each entry, in µg/mL.

In: What measured solubility at 72 h goes with CC(C)(C)c1ccc(CNC(=S)NCc2ccc(NS(C)(=O)=O)c(F)c2)cc1 [Compound 1] ?
Out: 9620

---

# Assay info: Solubility of Compound 1 in 2-hydroxypropyl-β-cyclodextrin solution in glycine buffer (pH 10.5) (HPLC)
# Format: physicochemical
# Recorded conditions: pH 10.5, aqueous with cosolvent or surfactant or cyclodextrin, thermodynamic from solid, 1.5 w/v % 2-hydroxypropyl-β-cyclodextrin, stirred 72 hours
Measurement kind: solubility at 72 h (µg/mL)
Numbers only, in µg/mL.

In: Consider the molecule shown here: CC(C)(C)c1ccc(CNC(=S)NCc2ccc(NS(C)(=O)=O)c(F)c2)cc1 [Compound 1] What is its recorded solubility at 72 h?
Out: 2700

---

# Assay info: Solubility of Compound 1 in aqueous 2-hydroxypropyl-β-cyclodextrin solutions (HPLC)
# Type: physicochemical
# Recorded conditions: aqueous 2-hydroxypropyl-β-cyclodextrin solution, aqueous with cosolvent or surfactant or cyclodextrin, thermodynamic from solid, 14.0 w/v % 2-hydroxypropyl-β-cyclodextrin, stirred 72 hours
# Description: 0.4 g of 1-(4-t-butylbenzyl)-3-(3-fluoro-4-methanesulfonylaminobenzyl)thiourea (Compound 1) was added to each 10 ml of 0, 1.5, 3.5, 7.0, 14.0 and 28.0 w/v % aqueous solutions of 2-hydroxypropyl-β-cyclodextrin. […] The concentration of Compound 1 in the filtrate was determined by high performance liquid chromatography (HPLC) and the solubility of Compound 1 depending on the concentration of 2-hydroxypropyl-β-cyclodextrin is presented in Table 1.
Measurement kind: solubility at 72 h (mg/mL)
One number for each entry, in mg/mL.

In: Please report the recorded solubility at 72 h for CC(C)(C)c1ccc(CNC(=S)NCc2ccc(NS(C)(=O)=O)c(F)c2)cc1 .
Out: 12.2

---

# Assay info: Solubility of Compound 1 in 2-hydroxypropyl-β-cyclodextrin solution in glycine buffer (pH 10.5) (HPLC)
# Format: physicochemical
# Recorded conditions: pH 10.5, aqueous buffer, thermodynamic from solid, 0 w/v % 2-hydroxypropyl-β-cyclodextrin, stirred 72 hours
# Protocol: 0.4 g of 1-(4-t-butylbenzyl)-3-(3-fluoro-4-methanesulfonylaminobenzyl)thiourea (Compound 1) was added to each 10 ml of 0, 1.5, 3.5, 7.0, 14.0 and 28.0 w/v % 2-hydroxypropyl-β-cyclodextrin solution in glycine buffer (pH 10.5). […] The concentration of Compound 1 in the filtrate was determined by high performance liquid chromatography (HPLC) and the solubility of Compound 1 depending on the concentration of 2-hylroxypropyl-β-cyclodextrin is presented in Table 2.
Measurement kind: solubility at 72 h (µg/mL)
Answers are plain numbers, in µg/mL.

In: For CC(C)(C)c1ccc(CNC(=S)NCc2ccc(NS(C)(=O)=O)c(F)c2)cc1 , what is its reported solubility at 72 h?
Out: 50

---

# Assay info: Solubility of Compound 1 in 2-hydroxypropyl-β-cyclodextrin solution in glycine buffer (pH 10.5) (HPLC)
# Assay type: physicochemical
# Recorded conditions: pH 10.5, aqueous with cosolvent or surfactant or cyclodextrin, thermodynamic from solid, 3.5 w/v % 2-hydroxypropyl-β-cyclodextrin, stirred 72 hours
Measurement kind: solubility at 72 h (µg/mL)
Give bare numbers, in µg/mL.

In: Fill in: solubility at 72 h of CC(C)(C)c1ccc(CNC(=S)NCc2ccc(NS(C)(=O)=O)c(F)c2)cc1 is ___
Out: 4800

---

# Assay info: Solubility of Compound 1 in 95% ethanol solution containing 2-hydroxypropyl-β-cyclodextrin (HPLC)
# Assay type: physicochemical
# Recorded conditions: organic solvent or mixture, thermodynamic from solid, 20.0 w/v % 2-hydroxypropyl-β-cyclodextrin, stirred 72 hours
Measurement kind: solubility at 72 h
Put your answer as a value accompanied by its unit after it.

In: For the compound shown here, CC(C)(C)c1ccc(CNC(=S)NCc2ccc(NS(C)(=O)=O)c(F)c2)cc1 , give the reported solubility at 72 h.
Out: 43.5 mg/mL

---

# Assay info: Solubility of Compound 1 in 2-hydroxypropyl-β-cyclodextrin solution in glycine buffer (pH 10.5) (HPLC)
# Type: physicochemical
# Recorded conditions: pH 10.5, aqueous with cosolvent or surfactant or cyclodextrin, thermodynamic from solid, 28.0 w/v % 2-hydroxypropyl-β-cyclodextrin, stirred 72 hours
# Procedure: 0.4 g of 1-(4-t-butylbenzyl)-3-(3-fluoro-4-methanesulfonylaminobenzyl)thiourea (Compound 1) was added to each 10 ml of 0, 1.5, 3.5, 7.0, 14.0 and 28.0 w/v % 2-hydroxypropyl-β-cyclodextrin solution in glycine buffer (pH 10.5). […] The concentration of Compound 1 in the filtrate was determined by high performance liquid chromatography (HPLC) and the solubility of Compound 1 depending on the concentration of 2-hylroxypropyl-β-cyclodextrin is presented in Table 2.
Measurement kind: solubility at 72 h (mg/mL)
One number for each entry, in mg/mL.

In: Any idea what solubility at 72 h was measured for CC(C)(C)c1ccc(CNC(=S)NCc2ccc(NS(C)(=O)=O)c(F)c2)cc1 ?
Out: 32.5

---

# Assay info: Solubility of Compound 1 in 95% ethanol solution containing 2-hydroxypropyl-β-cyclodextrin (HPLC)
# Format: physicochemical
# Recorded conditions: organic solvent or mixture, thermodynamic from solid, 5.0 w/v % 2-hydroxypropyl-β-cyclodextrin, stirred 72 hours
Measurement kind: solubility at 72 h (mg/mL)
Numbers only, in mg/mL.

In: For CC(C)(C)c1ccc(CNC(=S)NCc2ccc(NS(C)(=O)=O)c(F)c2)cc1 , what is its reported solubility at 72 h?
Out: 27.2

---

# Assay info: Solubility of Compound 1 in aqueous 2-hydroxypropyl-β-cyclodextrin solutions (HPLC)
# Assay type: physicochemical
# Recorded conditions: aqueous 2-hydroxypropyl-β-cyclodextrin solution, aqueous with cosolvent or surfactant or cyclodextrin, thermodynamic from solid, 28.0 w/v % 2-hydroxypropyl-β-cyclodextrin, stirred 72 hours
Measurement kind: solubility at 72 h
Reply with the number and its unit after it.

In: Look at this molecule and give its reported solubility at 72 h. CC(C)(C)c1ccc(CNC(=S)NCc2ccc(NS(C)(=O)=O)c(F)c2)cc1
Out: 29 mg/mL

---

# Assay info: Solubility of Compound 1 in aqueous 2-hydroxypropyl-β-cyclodextrin solutions (HPLC)
# Type: physicochemical
# Recorded conditions: aqueous 2-hydroxypropyl-β-cyclodextrin solution, aqueous with cosolvent or surfactant or cyclodextrin, thermodynamic from solid, 7.0 w/v % 2-hydroxypropyl-β-cyclodextrin, stirred 72 hours
Measurement kind: solubility at 72 h (µg/mL)
One number for each entry, in µg/mL.

In: Query (compound): CC(C)(C)c1ccc(CNC(=S)NCc2ccc(NS(C)(=O)=O)c(F)c2)cc1 ; field requested: solubility at 72 h
Out: 4180

---

# Assay info: Test for pharmacokinetics after oral administration to rats
# Type: in vivo
# Recorded conditions: male, rat, plasma, po, orally administered, 10 mg/kg, read-out: Cmax: Maximum plasma concentration
Measurement kind: Cmax (ng/mL)
One number for each entry, in ng/mL.

In: Record request: Cmax value, item CC(C)(C)c1ccc(CNC(=S)NCc2ccc(NS(C)(=O)=O)c(F)c2)cc1 [Compound 1]
Out: 670

---

# Assay info: Solubility of Compound 1 in 95% ethanol solution containing 2-hydroxypropyl-β-cyclodextrin (HPLC)
# Assay type: physicochemical
# Recorded conditions: organic solvent or mixture, thermodynamic from solid, 2.0 w/v % 2-hydroxypropyl-β-cyclodextrin, stirred 72 hours
Measurement kind: solubility at 72 h

In: Which solubility at 72 h value belongs to CC(C)(C)c1ccc(CNC(=S)NCc2ccc(NS(C)(=O)=O)c(F)c2)cc1 ?
Out: 22.7 mg/mL
